Each entry below lists one item and its recorded pEC50 value.
molecular target: Mouse LRP-8 expressed on HEK293 cells (mouse) (UniProt Q924X6); assay: cell-based binding assay, mLRP8
# log scale: pEC50 equals minus log10 of the concentration in mol/L

Recorded results for 3 binders are shown here.
{"binder": "anti-LRP-8 BGK-7A11 chimeric antibody (CL-105959) (antibody, V domains shown) VH: QVTLKESGPGILQPSQTLSLTCTFSGFSLSTYGMGVGWIRQPAGTGLEWLANIWWDDDKYYNPSLKNRLTISKDTSNNQVFLKITNVDTADTATYYCARTTKPYYFDYWGQGVMVTVSS VL: HFVLAQPNSVSTNLGSTVKLSCKRSTGNSGSNYVNWYQQYEGRSPTTMIYRDDKRPDGVPDRFSGSIDRSSNSALLTINNVQTEDEADYFCQSYSSGINIFGGGTKLTVL", "pEC50": 7.56}
{"binder": "anti-LRP-8 BGK-2C8.8C antibody (antibody, V domains shown) VH: EVQLVESGGGLVQPGRSLKLSCAASGFTVSDYYMAWVRQAPKKGLEWVASISYEGSSTYYGDSVKGRFTISRDNAKSILYLQMNSLRSEDTATYYCARPLRYYGYNYRFAYWGQGTLVTVSS VL: DIQMSQSPPVLSASVGDRVTLSCKASQNIHKNLDWYQQKHGEAPKLLIYYTDNLQTGIPSRFSGSGSGTDYTLTISSLQPEDVATYYCYQYNSGPTFGAGTKLELQ", "pEC50": 7.66}
{"binder": "chimeric anti-LRP-8 ML199.11H1.5B2 antibody [mu/hu IgG1/k] LALA (antibody, V domains shown) VH: EVQLVESGGDLVKPGGSLKLSCAASRFTFSNYGMSWVRQTPDKRLEWVATISSGGRYTYYPDSVKGRFTISRDNAKNTLYLQMSSLRSEDTAMYYCARDYLYAMDYWGQGTSVTVSS VL: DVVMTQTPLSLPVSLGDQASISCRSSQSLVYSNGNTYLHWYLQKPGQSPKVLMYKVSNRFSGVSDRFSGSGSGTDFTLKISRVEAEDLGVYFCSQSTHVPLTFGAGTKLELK", "pEC50": 9.49}

Switching to the query record.
The recorded pEC50 for entry anti-LRP-8 BGK-9D10-2 antibody (CL-105967) (antibody, V domains shown) VH: EVQLVESGGGLVQSGRSLKLSCAASGFTFSNYYMAWVRQAPKKGLEWVATITTSGSRSFYPDSVKGRFTISRDNAKSSLYLQINSLKSEDTATYYCARRGPLGYFDHWGRGVMVTVSS VL: DIQMTQSPPSLPASLGDKVTITCQASQNINKYIAWYQQKPGKAPRLLIRFTSTLESDTPSRFSGSGSGRDYSFSISNVESEDFASYYCLHYDNLPPWTFGGGTKLELK equals 9.37
